molecular target: proMMP9(67-444;ΔFnII) (SEQ ID NO:5) (Homo sapiens, UniProt P14780, DEL216-390); construct: start methionine (N); assay: ThermoFluor with proMMP9(67-444;ΔFnII); settings: read-out: proMMP9(67-444; ΔFnII) (SEQ ID NO: 5) binding
Sequence (P14780 with tags, fused parts or gaps DEL216-390): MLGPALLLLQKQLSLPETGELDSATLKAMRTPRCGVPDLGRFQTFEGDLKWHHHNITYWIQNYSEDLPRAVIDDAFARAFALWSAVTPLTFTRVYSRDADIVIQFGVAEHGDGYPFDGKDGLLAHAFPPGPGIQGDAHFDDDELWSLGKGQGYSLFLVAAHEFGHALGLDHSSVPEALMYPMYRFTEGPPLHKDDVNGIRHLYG
So basically, if Kd comes in under 100 nM it's class 1, and if it's 100 nM or more it's class 0.

>>> label_class("CCN1CC=C(c2ccc(-c3csc(Nc4cc(C(N)=O)ccc4OC(C)C)n3)cc2)CC1")
"class 1"
>>> label_class("CC(C)Oc1ccc(C(N)=O)cc1Nc1nc(-c2ccc(CN3CC[C@@H](F)C3)cc2)cs1")
"class 1"
>>> label_class("NS(=O)(=O)c1ccc(OC(F)(F)F)c(Nc2nc(-c3ccc(OCCN4CCC(F)CC4)cc3)cs2)c1")
"class 0"
>>> label_class("CC(C)Oc1ccc(C(N)=O)cc1Nc1nc(-c2ccc(C3=CCN(C)CC3)cc2)cs1")
"class 1"
>>> label_class("COc1ccc(F)cc1Nc1nc(-c2ccc(CN3CC[C@@H](F)C3)cc2)cs1")
"class 0"
>>> label_class("COc1ccc(F)cc1Nc1nc(-c2ccc(OCCCN3CCOCC3)cc2)cs1")
"class 0"
>>> label_class("CCOc1ccncc1Nc1nc(-c2ccc(C3=CCN(CC)CC3)cc2)cs1")
"class 1"
>>> label_class("CC(C)Oc1ccc(F)cc1Nc1nc(-c2ccc(OCCN3CCOCC3)cc2)cs1")
"class 0"
>>> label_class("CCOc1ccncc1Nc1nc(-c2ccc(C3=CCN(C)CC3)cc2)cs1")
"class 0"
>>> label_class("CC(C)Oc1ccc(C(N)=O)cc1Nc1nc(-c2ccc(N3CCN(C(C)C)CC3)cc2)cs1")
"class 1"
>>> label_class("COc1ccc(F)cc1Nc1nc(-c2ccc(OCCN3CCN(C)CC3)cc2)cs1")
"class 0"

* * *

biological target: proMMP13(1-268) (SEQ ID NO:7) (Homo sapiens); construct: 6×-histidine tag (C); made in house; host or cells: HEK293 (transient transfection, secreted); assay: ProMMP13/Plasmin P126 Activation Assay; format: biochemical; conditions: proMMP13(1-268) activated by plasmin
So basically, if IC50 comes in under 400 nM it's t, and if it's 400 nM or more it's f.

>>> label_class("CC(C)Oc1ccc(C(N)=O)cc1Nc1nc(-c2ccc(CN3CCN(C(C)C)CC3)cc2)cs1")
"f"
>>> label_class("CC(C)Oc1ccc(S(N)(=O)=O)cc1Nc1nc(-c2ccc(C3=CCN(C)CC3)cc2)cs1")
"t"
>>> label_class("CCOc1ccncc1Nc1nc(-c2ccc(C3=CCN(C(C)C)CC3)cc2)cs1")
"f"
>>> label_class("CC(C)Oc1ccc(S(N)(=O)=O)cc1Nc1nc(-c2ccc(CN3CC[C@@H](F)C3)cc2)cs1")
"f"
>>> label_class("CC(C)Oc1ccc(C(N)=O)cc1Nc1nc(-c2ccc(N3CCNCC3)cc2)cs1")
"t"
>>> label_class("CC(C)Oc1ccc(C(N)=O)cc1Nc1nc(-c2ccc(CN3CCN(C)CC3)cc2)cs1")
"f"

* * *

pIC50 overview
target: full-length proMMP9(1-707) (SEQ ID NO:1) (Homo sapiens, UniProt P14780, R574P); construct: E. coli (MMP3); assay: proMMP9/MMP3 P126 Activation Assay; details: proMMP9(1-707) from HEK293 cells activated by catalytic MMP3
Sequence (P14780 20-707 R574P): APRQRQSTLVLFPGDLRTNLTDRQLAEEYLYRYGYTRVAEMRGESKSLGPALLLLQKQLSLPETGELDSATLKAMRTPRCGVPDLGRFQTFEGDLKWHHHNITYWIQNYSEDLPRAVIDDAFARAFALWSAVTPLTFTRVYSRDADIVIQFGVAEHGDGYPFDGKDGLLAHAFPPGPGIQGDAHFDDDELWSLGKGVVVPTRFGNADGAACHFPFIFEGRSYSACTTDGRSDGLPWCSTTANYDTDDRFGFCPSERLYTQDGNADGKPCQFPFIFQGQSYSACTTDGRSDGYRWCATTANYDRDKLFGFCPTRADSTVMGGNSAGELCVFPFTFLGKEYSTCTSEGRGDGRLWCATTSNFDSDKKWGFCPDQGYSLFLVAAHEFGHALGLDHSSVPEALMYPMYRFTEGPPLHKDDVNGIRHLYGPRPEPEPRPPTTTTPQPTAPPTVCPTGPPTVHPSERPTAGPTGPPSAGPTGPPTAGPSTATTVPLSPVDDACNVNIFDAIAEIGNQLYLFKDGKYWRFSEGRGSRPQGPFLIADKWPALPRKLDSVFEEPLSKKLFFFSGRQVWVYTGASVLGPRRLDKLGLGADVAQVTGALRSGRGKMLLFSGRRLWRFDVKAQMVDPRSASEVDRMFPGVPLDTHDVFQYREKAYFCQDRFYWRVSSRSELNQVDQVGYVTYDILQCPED
pIC50: −log10 of the molar value.
Measure name: pIC50

>>> value_observed("COc1ccc(F)cc1Nc1nc(-c2ccc(OCCN3CCN(C4CC4)CC3)cc2)cs1 [Example 70]")
6.32
>>> value_observed("COc1ccc(F)cc1Nc1nc(-c2ccc(OCCN3CCC(F)CC3)cc2)cs1 [Example 68]")
5.89
>>> value_observed("CC(C)Oc1ccc(S(N)(=O)=O)cc1Nc1nc(-c2ccc(C3CCNCC3)cc2)cs1 [Example 24]")
6.89
>>> value_observed("COc1ccc(F)cc1Nc1nc(-c2ccc(CN3CCN(C4CC4)CC3)cc2)cs1 [Example 60]")
6.03
>>> value_observed("COc1ccc(F)cc1Nc1nc(-c2ccc(CN3CCN(C(C)C)CC3)cc2)cs1 [Example 63]")
6.60
>>> value_observed("CC(C)Oc1ccc(C(N)=O)cc1Nc1nc(-c2ccc(OCCN3CCOCC3)cc2)cs1 [Example 29]")
6.82
>>> value_observed("CC(C)Oc1ccc(C(N)=O)cc1Nc1nc(-c2ccc(N3CCN(Cc4ccccc4)CC3)cc2)cs1 [Example 11]")
6.13
>>> value_observed("CCOc1ccncc1Nc1nc(-c2ccc(OCCN3CCC(F)CC3)cc2)cs1 [Example 36]")
7.04
>>> value_observed("CC(C)Oc1ccc(C(N)=O)cc1Nc1nc(-c2ccc(CN3CCC(F)CC3)cc2)cs1 [Example 54]")
7.02
>>> value_observed("COc1ccc(F)cc1Nc1nc(-c2ccc(OCCN3CCN(C)CC3)cc2)cs1 [Example 69]")
7.05
